Origin of the recorded values: PubChem BioAssay (NCI)

Tested on: EKVX NSCLC
Assay: NCI-60 one-dose screen, 48 h (100 = growth as untreated, 0 = no growth, -100 = all killed)
Settings: 10 µM
The panel holds about 83,000 compounds, 20% with a hit somewhere; the sample as a whole holds those more often.
One threshold, 80%, splits the recorded growth values: lower ones are Fulfilled, equal or higher ones are Not fulfilled.

In: Given the entry "Nc1ccc(/C=N/Nc2ccnc3c(O)cccc23)c2cccnc12" , would its reported growth be below 80%?
Out: Fulfilled

In: Given the entry Clc1ccc(/C=C2\CCCC3C2=Nc2ccccc2NC3c2ccc(Cl)cc2)cc1 (stereo unspecified) , would its reported growth be below 80%?
Out: Not fulfilled

In: Given the entry "CSc1nc2c(c(=O)n1C)CN(Cc1ccccc1)C(=O)CN2" , would its reported growth be below 80%?
Out: Not fulfilled

In: Given the entry "O=C(N/N=C/c1cc([N+](=O)[O-])ccc1O)c1cccc2ccccc12" , would its reported growth be below 80%?
Out: Fulfilled

In: Given the entry "CC(C)Cc1ccc([C@H](C)C(=O)O)cc1" , would its reported growth be below 80%?
Out: Not fulfilled

Further cases:
In: Given the entry "COc1cc2c(Nc3ccc(-c4ccc(N)cc4)cc3)ncnc2c(OC)c1OC" , would its reported growth be below 80%?
Out: Fulfilled

In: Given the entry "CN(C)CCOc1ccccc1NC1=C(Cl)C(=O)C(Nc2ccccc2OCCN(C)C)=C(Cl)C1=O" , would its reported growth be below 80%?
Out: Fulfilled

In: Given the entry "O=C(Cn1cc(CO)nn1)Nc1nc2ccccc2s1" , would its reported growth be below 80%?
Out: Not fulfilled

In: Given the entry "COC(=O)c1c[nH]c2cc(OC(C)C)c(OC(C)C)cc2c1=O" , would its reported growth be below 80%?
Out: Not fulfilled

In: Given the entry "O=C1CC(=O)N(C(=O)c2nn(-c3ccc(Cl)cc3)cc2O)N1" , would its reported growth be below 80%?
Out: Fulfilled
